assay: soluble on expression in E. coli; label from the status in PepcDB or PDB records

seq.string	soluble on expression in E. coli
SAGNAEPPPAGAACPQDRRSCSGRAGGDRVWEDGEHPAKKLKSGGDEERREKPPKRKIVLLMAYSGKGYHGMQRNVGSSQFKTIEDDLVSALVRSGCIPENHGEDMRKMSFQRCARTDKGVSAAGQVVSLKVWLIDDILEKINSHLPSHIRILGLKRVTGGFNSKNRCDARTYCYLLPTFAFAHKDRDVQDETYRLSAETLQQVNRLLACYKGTHNFHNFTSQKGPQDPSACRYILEMYCEEPFVREGLEFAVIRVKGQSFMMHQIRKMVGLVVAIVKGYAPESVLERSWGTEKVDVPKAPGLGLVLERVHFEKYNQRFGNDGLHEPLDWAQEEGKVAAFKEEHIYPTIIGTERDERSMAQWLSTLPIHNFSATALTAGGTGAKVPSPLEGSEGDGDTD	soluble
TLKEMKYKRNQEEIETYYEYTLKIEAINNEMRKFRHDYVNILTTLSEYIREDDMIGLRAYFNKNIVPMKDNLQMNAIKLNGIENLKVREIKGLITAKILRAQEMNIPISIEIPDEVSSINLNMIDLSRSIGIILDNAIEASTEIDDPIIRVAFIESENSVTFIVMNKCADDIPRIHELFQESFSTKGEGRGLGLSTLKEIADNADNVLLDTIIENGFFIQKVEIINN	not soluble
MSKSALDPVEFLKGALEIPSPSGKERAVAEYLAEGMQKLGLKGFVDEADNARGQVGEGPVQVVLLGHIDTVPGQIPVRLEGGRLFGRGAVDAKGPFVAMIFAAAGLSEEARRRLTVHLVGATEEEAPSSKGARFVAPRLKPHYAVIGEPSGWEGITLGYKGRLLVKARREKDHFHSAHHEPNAAEELISYFVAIKAWAEAMNVGQRPFDQVQYTLRDFRVHPAELRQVAEMFFDLRLPPRLPPEEAIRHLTAYAPPTIELEFFGREVPYQGPKDTPLTRAFRQAIRKAGGRPVFKLKTGTSDMNVLAPHWPVPMVAYGPGDSTLDHTPYEHVEVAEFLKGIEVLRGALEALAQTHAGEKEG	soluble
MEFLKLSEGKTKEVYAYDDSHVLLKFKDSITAGDGARKDILEGKGILNAQTSAFLFRLLESKGIETHYIGMFDERTMIAKKLKMIPVEVVLRNIATGSIVKRLPIKEGEVFEPPIIEFFLKDDERHDPMLNYYHMEYLKLMTRKEAEKIEEIMLKVNEILYPFFRSKKLLLYDFKLEFGRVNDKLIIGDELTLDSMRIREEGSGRILDKDLYRKGADLETVKKAYEEFFKRISE	soluble
MIEISTSSTTTTLLVAGDLDLAEREQFPEVTARVVGLRRQLLVIDMCRVTFMDSTGAAFLISLADAGRRRGGATVLRGAADRDLFVLEICGALELFRIDADHHCELGAELPSAPEGAPAPA	not soluble
MSRFQTLTPASLSREAFIEAFADIYEHSPWVAEKAYDLGIDDSLNDIEGLHQRMADILLSASREAQLALINAHPDLAGKAAIRGELTASSTSEQAGAGIHECSAEEFARFTELNDAYKARFGFPFIKAVKGSNRHQILAAFEERIQHSADEEFATALAEINKIALFRLQQL	not soluble
GSHMHRVINHPYYFPFNGKQAEDYLRSKERGDFVIRQSSRGDDHLAITWKLDKDLFQHVDIQEMEKENPLAMGKVLVVEGQRYHDLDQIIVEYLQNKIRLLNE	soluble
MTVKQTVEVTNKLGMHARPAMKLFELMQGFDAEVLLRNDEGTEAEANSVIALLMLDSAKGRQIEIEATGPQEVEALAAVIALFNSGFDED	not soluble
VTDHVREADDANIDDLLGDLGGTARAERAKLVEWLLEQGITPDEIRATNPPLLLATRHLVGDDGTYVSAREISENYGVDLELLQRVQRAVGLARVDDPDAVVHMRADGEAAARAQRFVELGLNPDQVVLVVRVLAEGLSHAAEAMRYTALEAIMRPGATELDIAKGSQALVSQIVPLLGPMIQDMLFMQLRHMMETEAVNAGERAAGKPLPGARQVTVAFADLVGFTQLGEVVSAEELGHLAGRLAGLARDLTAPPVWFIKTIGDAVMLVCPDPAPLLDTVLKLVEVVDTDNNFPRLRAGVASGMAVSRAGDWFGSPVNVASRVTGVARPGAVLVADSVREALGDAPEADGFQWSFAGPRRLRGIRGDVRLFRVRRGATRTGSGGAAQDDDLAGSSP	soluble
MKYPQVWDLDTFFKGGSQSSDFQHFVKETEELVDKLVASTSAKMTLAQLVNELVNVQKVMQRLRHGAAFVSCLKAQNVKDEHAFQWQGKLNELQAKLQNIWVELEATFGRMEDGEWQELLNHPQLSDITFSLNERRQAAAEKLAPEQEKLVAQLAVDGYHAWGEVYNQAVGRMEIPFEEDGETKRLSP	not soluble
MGSDKIHHHHHHMLQMIPARPSRALASLSEAYEECRQITARYAKTFYLGTLLMPEAKRQAIWAIYVWCRRTDELVDGPQAAQTNFATLDAWERRLERLFAGEPEDDCDVALVDTLARYPLDIQPFRDMIEGQRMDLLQNRYSTFEDLYTYCYRVAGTVGLMSQPVMGIESTNSRAPWDPTTPPDPTQEALALGIANQLTNILRDVGEDARRGRIYLPQEELAQFNYSEQDLFNGVIDDRWRAFMQFQLDRARDYFEQAERGIRQLSHDARWPVWASLMLYREILDVIEQNNYDVFRKRAYVPTWRKLCSLPVAMLRATVL	not soluble
MSKYGCPTSDTDPNSVTMITKRGPVNKTLKSAAQLNAAQRAGVDISTEKKTMSGGNRQHSANKNTLRLDEETEELHHQKVALSLGKVMQQARATKGWTQKDLSTQINEKPQVVGEYESGKAVPNQQIMAKMERALGVKLRGKDIGMPFSTKPPAKK	not soluble
